Where these numbers come from: patent US20260035365A1

biological target: mutEGFR (D770_N771insNPG, T790); test: mutEGFR (D770_N771insNPG, T790) kinase assay
Sequence (P00533 with tags, fused parts or gaps INS770NPG limits assumed): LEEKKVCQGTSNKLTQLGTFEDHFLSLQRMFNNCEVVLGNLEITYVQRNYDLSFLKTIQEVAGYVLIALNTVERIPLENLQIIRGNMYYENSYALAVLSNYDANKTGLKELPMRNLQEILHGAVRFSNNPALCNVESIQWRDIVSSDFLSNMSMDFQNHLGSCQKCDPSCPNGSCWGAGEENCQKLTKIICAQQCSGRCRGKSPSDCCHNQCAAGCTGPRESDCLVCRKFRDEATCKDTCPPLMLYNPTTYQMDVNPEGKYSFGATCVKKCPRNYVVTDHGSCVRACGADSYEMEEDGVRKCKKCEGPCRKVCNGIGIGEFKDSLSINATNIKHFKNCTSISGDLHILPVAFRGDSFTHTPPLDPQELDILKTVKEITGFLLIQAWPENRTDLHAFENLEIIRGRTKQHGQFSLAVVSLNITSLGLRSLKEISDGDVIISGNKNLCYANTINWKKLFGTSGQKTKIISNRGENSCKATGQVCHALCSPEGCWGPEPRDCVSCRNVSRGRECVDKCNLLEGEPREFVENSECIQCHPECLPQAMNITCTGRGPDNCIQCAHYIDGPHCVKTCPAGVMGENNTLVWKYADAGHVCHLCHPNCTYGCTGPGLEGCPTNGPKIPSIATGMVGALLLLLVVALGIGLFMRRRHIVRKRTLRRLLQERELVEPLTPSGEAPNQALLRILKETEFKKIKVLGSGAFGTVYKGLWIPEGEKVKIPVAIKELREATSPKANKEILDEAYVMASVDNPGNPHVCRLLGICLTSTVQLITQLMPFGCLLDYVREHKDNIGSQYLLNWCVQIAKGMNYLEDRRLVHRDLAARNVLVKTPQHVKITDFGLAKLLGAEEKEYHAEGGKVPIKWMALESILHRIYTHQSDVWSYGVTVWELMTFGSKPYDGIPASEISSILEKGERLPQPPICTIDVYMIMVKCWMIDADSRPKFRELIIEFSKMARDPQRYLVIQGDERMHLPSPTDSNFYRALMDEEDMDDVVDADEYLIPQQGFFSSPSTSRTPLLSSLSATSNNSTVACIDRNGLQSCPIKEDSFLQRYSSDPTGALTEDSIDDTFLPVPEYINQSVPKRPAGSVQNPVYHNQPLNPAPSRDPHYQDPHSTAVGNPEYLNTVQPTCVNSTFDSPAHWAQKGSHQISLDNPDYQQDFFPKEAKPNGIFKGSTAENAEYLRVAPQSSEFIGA
pIC50: −log10 of the molar value.
Is pIC50 at least 7? Then met. If not, not met.

[ask] Textbook exercise: given the entry C=CC(=O)N(C)CCOc1cnccc1-c1[nH]c2cccnc2c1-c1cccc(OC(F)(F)F)c1 , state whether its pIC50 is greater than or equal to 7.
[reply] not met

[ask] Please answer likewise for C=CC(=O)N(C)CCOc1cnccc1-c1[nH]c2ccc(OC)nc2c1-c1ccccc1
[reply] not met

[ask] Please answer likewise for CC#CC(=O)N1CCC[C@H]1COc1cnccc1-c1[nH]c2cccnc2c1-c1ccccc1
[reply] not met

[ask] Please answer likewise for C=CC(=O)N1CCC[C@H]1COc1cnccc1-c1[nH]c2cccnc2c1-c1cccc(Cl)c1Cl
[reply] met

[ask] Please answer likewise for C=CS(=O)(=O)N(C)CCOc1cnccc1-c1[nH]c2cccnc2c1-c1cccc(OC(F)(F)F)c1
[reply] met

[ask] Please answer likewise for C=CC(=O)N(C)CCOc1cnccc1-c1[nH]c2cccnc2c1-c1cccc(F)c1OC
[reply] not met

[ask] Please answer likewise for C=CC(=O)N(C)CCOc1cnccc1-c1[nH]c2cccnc2c1-c1ccc(Cl)c(Cl)c1
[reply] met

[ask] Please answer likewise for C=CC(=O)NCCOc1cnccc1-c1[nH]c2cccnc2c1-c1ccc(F)cc1
[reply] not met

[ask] Please answer likewise for CN(C)C/C=C/C(=O)N1CCC[C@H]1COc1cnccc1-c1[nH]c2cccnc2c1-c1cccc(C(F)(F)F)c1
[reply] met

[ask] Please answer likewise for C=CC(=O)NCCCOc1cnccc1-c1[nH]c2cccnc2c1-c1ccccc1
[reply] not met

[ask] Please answer likewise for C=CC(=O)N(C)CCOc1cnccc1-c1[nH]c2cccnc2c1-c1cccc(C(C)C)c1
[reply] not met

[ask] Please answer likewise for C#CC(=O)N1CCC(Oc2cnccc2-c2[nH]c3cccnc3c2-c2cccc(C(F)(F)F)c2)C1 (racemic)
[reply] not met

[ask] Please answer likewise for C=CC(=O)N1CCC[C@H]1COc1cnccc1-c1[nH]c2cccnc2c1-c1cc(C(F)(F)F)ccc1F
[reply] met

[ask] Please answer likewise for C=CC(=O)N1CC=C[C@H]1COc1cnccc1-c1[nH]c2cccnc2c1-c1ccccc1
[reply] met
